Biological target: GSK 3-β (Oryctolagus cuniculus, UniProt G1T8E2)
Sequence (G1T8E2 1-432): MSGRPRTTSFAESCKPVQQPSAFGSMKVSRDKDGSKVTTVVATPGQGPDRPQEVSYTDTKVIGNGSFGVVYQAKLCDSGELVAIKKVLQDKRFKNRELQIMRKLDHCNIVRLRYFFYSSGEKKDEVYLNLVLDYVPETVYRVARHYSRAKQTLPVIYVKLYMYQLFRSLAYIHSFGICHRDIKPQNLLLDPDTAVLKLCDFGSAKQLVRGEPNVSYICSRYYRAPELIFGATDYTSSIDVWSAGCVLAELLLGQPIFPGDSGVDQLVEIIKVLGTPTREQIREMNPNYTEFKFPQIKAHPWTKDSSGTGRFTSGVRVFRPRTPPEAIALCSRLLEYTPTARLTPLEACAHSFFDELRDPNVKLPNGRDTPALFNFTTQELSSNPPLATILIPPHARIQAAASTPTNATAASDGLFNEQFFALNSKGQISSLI
Experiment: Glycogen Synthase Kinase 3-β Assay
Conditions: inhibition value, recombinant rabbit GSK 3-β, PPI-2 substrate
Experimental: The inhibitory activity of a compound against Glycogen Synthase Kinase 3-β (GSK 3-β) activity was assessed using a recombinant rabbit GSK 3-β according to the procedure below. The mixture was reacted for 90 minutes at 30° C. to allow phosphorylation of the PPI-2 protein and then the protein in the reaction was precipitated using 10% trichloroacetic acid (TCA). […] Finally, the radioactivity was quantified using a TopCount Scintillation Counter (Packard, Meridian Conn.). […]
pIC50: −log10 of the molar value.
Label Satisfied when pIC50 >= 7; otherwise Not satisfied.

SMILES_STR: O=C1NC(=O)C2=C1c1cn(c3ncccc13)CCOCCOCCOCCOCCn1cc2c2cccnc21
LABEL_VALUE: Satisfied
//
SMILES_STR: O=C1NC(=O)C2=C1c1cn(c3ncccc13)CCOCCOCCOCCOCCOCCn1cc2c2cccnc21
LABEL_VALUE: Satisfied
//
SMILES_STR: O=C1NC(=O)C2=C1c1cn(c3ccccc13)CCOCCOCCOCCOCCn1cc2c2ccccc21
LABEL_VALUE: Satisfied
//
SMILES_STR: O=C1NC(=O)C2=C1c1cn(c3ncccc13)CCCCc1cccc(n1)CCCCn1cc2c2cccnc21
LABEL_VALUE: Not satisfied
//
SMILES_STR: O=C1NC(=O)C2=C1c1cn(c3ccccc13)CCOCCOCCOCCOCCOCCn1cc2c2ccccc21
LABEL_VALUE: Satisfied
//
SMILES_STR: O=C1NC(=O)C2=C1c1cn(c3ncccc13)C[C@H](O)CCCCCC[C@@H](O)Cn1cc2c2cccnc21
LABEL_VALUE: Not satisfied
//
SMILES_STR: O=C1NC(=O)C2=C1c1cn(c3ccccc13)Cc1cccc(c1)Cn1cc2c2cccnc21
LABEL_VALUE: Not satisfied
//
SMILES_STR: CCN1CCOCCn2cc(c3ccccc32)C2=C(C(=O)NC2=O)c2cn(c3ccccc23)CCOCC1
LABEL_VALUE: Satisfied
//
SMILES_STR: CCN1CCCCCn2cc(c3cccnc32)C2=C(C(=O)NC2=O)c2cn(c3ncccc23)CCCCC1
LABEL_VALUE: Not satisfied
//
SMILES_STR: O=C1NC(=O)C2=C1c1cn(c3ccccc13)CCOCCOCCOCCn1cc2c2cccnc21
LABEL_VALUE: Satisfied

* * *

target: Map kinase ERK-2 (Rattus norvegicus); construct: polyhistidine (N); purchased BIOMOL, Plymouth Meeting, Pa; SE-137; host or cells: E. coli; test: Biotinylated Peptide Substrate Assay, Map kinase ERK-2; assay type: biochemical
Sequence (P63086 whole entry): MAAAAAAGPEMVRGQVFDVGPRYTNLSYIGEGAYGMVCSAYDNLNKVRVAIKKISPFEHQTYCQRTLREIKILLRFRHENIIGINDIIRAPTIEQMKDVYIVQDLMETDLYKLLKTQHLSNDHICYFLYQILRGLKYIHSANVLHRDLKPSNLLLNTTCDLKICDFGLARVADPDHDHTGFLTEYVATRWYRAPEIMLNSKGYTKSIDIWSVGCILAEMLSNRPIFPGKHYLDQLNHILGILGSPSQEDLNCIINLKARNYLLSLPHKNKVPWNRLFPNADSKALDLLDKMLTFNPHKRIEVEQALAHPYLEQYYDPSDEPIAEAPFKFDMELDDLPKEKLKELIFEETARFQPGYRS
Here the recorded IC50 is given for each entry.
PROPERTY_NAME: IC50

SMILES_STR: O=C1NC(=O)C2=C1c1cn(c3ncccc13)CCOCCOCCOCCOCCn1cc2c2cccnc21
OBS_VALUE: > 10 µM

SMILES_STR: O=C1NC(=O)C2=C1c1cn(c3ncccc13)CCOCCOCCOCCn1cc2c2cccnc21
OBS_VALUE: > 10 µM

SMILES_STR: O=C1NC(=O)C2=C1c1cn(c3ccccc13)CCOCCOCCn1cc2c2cccnc21
OBS_VALUE: > 10 µM

SMILES_STR: O=C1NC(=O)C2=C1c1cn(c3ccccc13)CCOCCOCCOCCn1cc2c2cccnc21
OBS_VALUE: > 10 µM
